# system_tested: human wild type STING (WT STING) (Homo sapiens, UniProt Q86WV6, H232R)
# Sequence (Q86WV6 whole entry H232R): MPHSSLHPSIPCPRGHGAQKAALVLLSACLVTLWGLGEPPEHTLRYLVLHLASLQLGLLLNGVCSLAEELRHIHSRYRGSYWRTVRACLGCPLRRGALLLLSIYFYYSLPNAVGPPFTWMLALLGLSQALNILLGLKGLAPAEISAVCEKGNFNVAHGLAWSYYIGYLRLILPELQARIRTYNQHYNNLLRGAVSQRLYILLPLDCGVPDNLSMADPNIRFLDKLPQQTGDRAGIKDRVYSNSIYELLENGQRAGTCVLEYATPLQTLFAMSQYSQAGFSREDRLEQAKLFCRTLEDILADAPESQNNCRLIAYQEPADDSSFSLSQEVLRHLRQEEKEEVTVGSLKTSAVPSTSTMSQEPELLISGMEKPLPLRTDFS
# test: Digitonin assay using 293T wtSTING-FL reporter cells
# condition_parameters: 293T wtSTING-FL cells; ISRE firefly luciferase reporter; 30 min in Digitonin buffer, then 5 hours; 8-point dose-response curve
measurement_type: EC50 (nM)

Use the examples below as a reference point.
molecule	system_tested	reading_unit	EC50
Nc1ncc2ncn([C@@H]3O[C@@H]4COP(=O)(O)OC5C(O)[C@H](n6cnc7c(N)ncnc76)O[C@@H]5OCP(=O)(O)OC4C3O)c2n1 (stereo partly shown)	human wild type STING (WT STING) (Homo sapiens, UniProt Q86WV6, H232R)	nM	600
Nc1nc2c(ccn2[C@@H]2O[C@@H]3COP(=O)(O)OC4C(O)[C@H](n5cnc6c(N)ncnc65)O[C@@H]4OCP(=O)(O)OC3C2O)c(=O)[nH]1 (stereo partly shown)	human wild type STING (WT STING) (Homo sapiens, UniProt Q86WV6, H232R)	nM	4700
Nc1ncnc2c1ncn2[C@@H]1O[C@@H]2OCP(=O)(O)OC3C(O)[C@H](n4cnc5c(N)ncnc54)O[C@@H]3OCP(=O)(O)OC2C1O (stereo partly shown)	human wild type STING (WT STING) (Homo sapiens, UniProt Q86WV6, H232R)	nM	19200

A: Nc1nc2c(ncn2[C@@H]2O[C@@H]3COP(=O)(O)OC4C(O)[C@H](n5cnc6c(N)ncnc65)O[C@@H]4OCP(=O)(O)OC3C2O)c(=O)[nH]1 (stereo partly shown)
B: Nc1nc2c(ncn2[C@@H]2O[C@@H]3OCP(=O)(O)OC4C(O)[C@H](n5cnc6c(=O)[nH]c(N)nc65)O[C@@H]4OCP(=O)(O)OC3C2O)c(=O)[nH]1 (stereo partly shown)
C: Nc1ncnc2c1ncn2[C@@H]1O[C@@H]2OCP(=O)(O)OC3C(O)[C@H](n4cnc5c(N)nc(F)nc54)O[C@@H]3COP(=O)(O)OC2C1O (stereo partly shown)
D: Nc1nc2c(ncn2[C@@H]2O[C@@H]3OCP(=O)(O)OC4C(O)[C@H](n5cnc6c(N)ncnc65)O[C@@H]4COP(=O)(O)OC3C2O)c(=O)[nH]1 (stereo partly shown)
Exercise: Write the entries in order, lowest recorded EC50 first. # the answer lists labels in the order requested
Key: D, A, C, B
(D: 5 nM, A: 90 nM, C: 2200 nM, B: 8100 nM)

Origin of values: patent US10966999B2
